# studySystem: Phosphatidylinositol 4,5-bisphosphate 3-kinase catalytic subunit alpha isoform (Mus musculus)
# Sequence (P42337 whole entry, canonical isoform): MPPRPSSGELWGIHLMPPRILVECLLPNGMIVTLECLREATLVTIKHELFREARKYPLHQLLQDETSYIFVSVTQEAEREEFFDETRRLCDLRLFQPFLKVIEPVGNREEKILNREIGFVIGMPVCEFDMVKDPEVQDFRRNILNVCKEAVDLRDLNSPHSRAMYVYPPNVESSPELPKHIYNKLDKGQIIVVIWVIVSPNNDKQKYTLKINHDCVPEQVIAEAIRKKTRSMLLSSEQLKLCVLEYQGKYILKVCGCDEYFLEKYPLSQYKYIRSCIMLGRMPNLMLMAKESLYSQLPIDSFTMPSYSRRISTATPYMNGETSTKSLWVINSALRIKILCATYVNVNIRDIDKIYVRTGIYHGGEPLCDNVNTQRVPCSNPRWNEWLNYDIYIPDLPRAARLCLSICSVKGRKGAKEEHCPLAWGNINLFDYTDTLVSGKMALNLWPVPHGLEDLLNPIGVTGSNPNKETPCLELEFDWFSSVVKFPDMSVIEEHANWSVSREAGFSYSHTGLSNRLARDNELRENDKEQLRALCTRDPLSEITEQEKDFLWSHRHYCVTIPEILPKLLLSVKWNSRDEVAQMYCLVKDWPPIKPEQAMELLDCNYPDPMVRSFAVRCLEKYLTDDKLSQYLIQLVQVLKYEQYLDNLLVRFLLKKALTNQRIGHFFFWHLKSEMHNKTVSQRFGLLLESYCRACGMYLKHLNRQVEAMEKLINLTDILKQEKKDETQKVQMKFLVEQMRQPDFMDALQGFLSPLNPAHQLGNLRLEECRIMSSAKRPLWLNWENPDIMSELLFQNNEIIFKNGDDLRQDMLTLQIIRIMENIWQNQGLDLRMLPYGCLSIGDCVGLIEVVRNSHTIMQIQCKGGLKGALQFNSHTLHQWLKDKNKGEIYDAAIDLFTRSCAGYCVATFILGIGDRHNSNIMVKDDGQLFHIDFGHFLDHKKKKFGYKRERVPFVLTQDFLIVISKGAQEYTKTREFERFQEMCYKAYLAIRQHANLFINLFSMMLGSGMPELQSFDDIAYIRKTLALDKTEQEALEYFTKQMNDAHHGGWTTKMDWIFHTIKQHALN
# testDetails: Inhibition of mouse recombinant PI3K p110alpha expressed in Sf21 insect cells using phosphatidylinositol as substrate after 1 hr by phosphoimaging
quantity: IC50 (nM)

Before answering, review these 5 worked examples.
compound: Nc1cccc2c1nc(C(F)F)n2-c1nc(N2CCOCC2)nc(N2CCOCC2)n1
IC50 [nM]: 4.8

compound: C[S+]([O-])Cc1nc2ccccc2n1-c1nc(N2CCOCC2)nc(N2CCOCC2)n1 (stereo not given)
IC50 [nM]: 590

compound: COc1cncc2c1nc(C(F)F)n2-c1nc(N2CCOCC2)nc(N2CCOCC2)n1
IC50 [nM]: 1290

compound: FC(F)c1nc2c3c(ccc2n1-c1nc(N2CCOCC2)nc(N2CCOCC2)n1)OCO3
IC50 [nM]: 550

compound: OCc1cccc2c1nc(C(F)F)n2-c1nc(N2CCOCC2)nc(N2CCOCC2)n1
IC50 [nM]: 27

P: N#Cc1cccc2c1nc(C(F)F)n2-c1nc(N2CCOCC2)nc(N2CCOCC2)n1
Q: Oc1cccc2c1nc(C(F)F)n2-c1nc(N2CCOCC2)cc(N2CCOCC2)n1
For this pair, P and Q , which shows a numerically higher IC50? Write the label of whichever entry you select.
P

// provenance: ChEMBL document CHEMBL1909493
